Known Activity of a selection of compounds
experiment-description: Percent ability of compound to produce DNA interstrand cross-links was determined by the ethidium fluorescence assay at 6 hr and compared with antileukemic property
Type: functional
Design: concentration or dose not given beside the values
Record the value in %, omitting the unit from your answer.

Solved entries (count: 5):
compound	endpoint-unit	Activity
NC(=O)N(CCCl)N=O	%	37
O=NN(CC[S+]([O-])CCCl)C(=O)NC1CCCCC1 (stereo unspecified)	%	0
Cc1ccc(S(=O)(=O)N(CCCl)N=O)cc1	%	0
CC(=O)N(CCCl)N=O	%	44
O=NN(CCSCCO)C(=O)NC1CCCCC1	%	0

Lab note: next compound to report on.
**Query** Check the records and state Activity for `O=NN(CCOCCCl)C(=O)NC1CCCCC1`
**Result** 0

The values you see were collected from ChEMBL document CHEMBL1121477.
